FYI, the data here is from paper PMC12305957.

target system: Reb1 (Saccharomyces cerevisiae) (UniProt P21538)
Sequence: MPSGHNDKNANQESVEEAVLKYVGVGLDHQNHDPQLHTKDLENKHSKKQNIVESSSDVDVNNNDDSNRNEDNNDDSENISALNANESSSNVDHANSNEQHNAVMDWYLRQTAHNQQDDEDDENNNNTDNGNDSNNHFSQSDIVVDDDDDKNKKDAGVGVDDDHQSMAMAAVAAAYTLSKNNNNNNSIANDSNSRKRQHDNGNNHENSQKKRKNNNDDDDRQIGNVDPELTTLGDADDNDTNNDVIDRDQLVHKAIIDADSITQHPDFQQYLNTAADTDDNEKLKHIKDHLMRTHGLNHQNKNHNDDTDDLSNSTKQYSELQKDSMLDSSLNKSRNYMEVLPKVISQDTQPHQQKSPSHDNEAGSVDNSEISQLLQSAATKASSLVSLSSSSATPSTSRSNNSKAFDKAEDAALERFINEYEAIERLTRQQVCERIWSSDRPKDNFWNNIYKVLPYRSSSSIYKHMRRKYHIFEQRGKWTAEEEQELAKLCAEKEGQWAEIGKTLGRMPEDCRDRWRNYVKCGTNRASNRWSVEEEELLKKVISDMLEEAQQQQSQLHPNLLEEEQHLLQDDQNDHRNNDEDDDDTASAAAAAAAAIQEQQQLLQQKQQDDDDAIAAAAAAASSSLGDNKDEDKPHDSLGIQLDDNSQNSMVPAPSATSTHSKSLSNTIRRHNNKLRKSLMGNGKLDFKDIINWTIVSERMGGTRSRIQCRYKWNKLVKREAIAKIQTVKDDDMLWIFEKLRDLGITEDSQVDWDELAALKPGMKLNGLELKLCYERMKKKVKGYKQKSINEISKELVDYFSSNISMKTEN
protocol description: EMSA
settings: 11.87 mM HEPES-KOH pH 7.9, 3 mM Tris-Cl, 96.67 mM NaCl, 3.33 mM KCl, 5.3 mM MgCl2, 0.13 mM Mg acetate, 1.33 uM ZnCl2, 0.05% NP-40, 10% glycerol, 100 ug/mL BSA …
Would you mind telling me the reported Kd of each entry?
Answers are plain numbers, in nM.

Field: example entries. Status: answers known.
ACAGGATGTATATATCTGACACGTGCCTGGAGACTAGGGAGTAATCCCCTTGGCGGTTAAAACGCGGGGGACAGCGCGTACGTGCGTTTAAGCGGTGCTAGAGCTGTCTACGACCAATTGAGCGGCCTCGGCACCGGGATTCTCCAGGGCGGCCGGACGGGTAACGCATCACCATGGTGATGACCGCGGACCTGCAGGCATGCAAGCTTGAGTATTCTATAGTGTCA (double strand) [NC-80/G-TC nucleosome] | 1.11
ACAGGATGTATATATCTGACACGTGCCTGGAGACTAGGGAGTAATCCCCTTGGCGGTTAAAACGCGGGGGACAGCGCGTACGTGCGTTTAAGCGGTGCTAGAGCTGTCTACGACCAATTGAGCGGCCTCGGCACCGGGATTCTCCAGGGCGGCCGGCCGGGTAACGCATCACCATGGTGATGACCGCGGACCTGCAGGCATGCAAGCTTGAGTATTCTATAGTGTCA (double strand) [NC-80/G-GC nucleosome] | 1.07
ACAGGATGTATATATCTGACACGTGCCTGGAGACTAGGGAGTAATCCCCTTGGCGGTTAAAACGCGGGGGACAGCGCGTACGTGCGTTTAAGCGGTGCTAGAGCTGTCTACGACCAATTGAGCGGCCTCGGCACCGGGATTCTCCAGGGCGGCCGCCCGGGTAACGCATCACCATGGTGATGACCGCGGACCTGCAGGCATGCAAGCTTGAGTATTCTATAGTGTCA (double strand) [NC-80/G-GG nucleosome] | 1.06

Tell me the measured Kd of ACAGGATGTATATATCTGACACGTGCCTGGAGACTAGGGAGTAATCCCCTTGGCGGTTAAAACGCGGGGGACAGCGCGTACGTGCGTTTAAGCGGTGCTAGAGCTGTCTACGACCAATTGAGCGGCCTCGGCACCGGGATTCTCCAGGGCGGCCGCTCGGGTAAAGCATCACCATGGTGATGACCGCGGACCTGCAGGCATGCAAGCTTGAGTATTCTATAGTGTCA (double strand) [NC-80/T-AG nucleosome] , please.
5.94
